Entries and their measured inhibition of growth at 10 µM follow.
# System: OVCAR-5
# Method Summary: Growth inhibition of human OVCAR5 cells at 10 uM by sulforhodamine B assay
# Assay type: functional
# Condition Parameters: read-out: GI
Dear colleague, please return just the value in %, with no unit written.

Sample records with inhibition of growth at 10 µM:
{"columns": ["Compound Smiles", "inhibition of growth at 10 µM [%]"],
 "data": [
  ["O=C(Nc1nc2ccc([N+](=O)[O-])cc2s1)c1cccnc1Nc1ccc(Cl)cc1", 26],
  ["O=C(Nc1nc2ccc([N+](=O)[O-])cc2s1)c1cccnc1Nc1ccccc1", 50],
  ["COc1ccc(Nc2ncccc2C(=O)Nc2nc3ccc([N+](=O)[O-])cc3s2)cc1", 52]
]}

State, for OVCAR-5, measured inhibition of growth at 10 µM of the molecule listed here: "O=S1(=O)c2ccccc2N(c2ccccc2)c2nc(-c3cccnc3Nc3ccccc3)nn21"
3

State, for OVCAR-5, measured inhibition of growth at 10 µM of the molecule listed here: "COc1ccc(Nc2ncccc2-c2nc3n(n2)S(=O)(=O)c2ccccc2N3C)cc1"
4

----------
# Tested on: SK-N-SH
# Method Summary: Growth inhibition of human SK-N-SH cells at 10 uM by sulforhodamine B assay
# Format: functional
# Condition Parameters: read-out: GI
Entries and their measured inhibition of growth at 10 µM follow.
Dear colleague, please return just the value in %, with no unit written.

{"columns": ["Compound Smiles", "inhibition of growth at 10 µM [%]"],
 "data": [
  ["O=C(Nc1nc2ccc([N+](=O)[O-])cc2s1)c1cccnc1Nc1cc(F)c(F)c(F)c1", 49],
  ["O=S1(=O)c2ccccc2N(c2ccccc2)c2nc(-c3cccnc3Nc3cc(F)c(F)c(F)c3)nn21", 16],
  ["CN1c2ccccc2S(=O)(=O)n2nc(-c3cccnc3Nc3cc(F)c(F)c(F)c3)nc21", 18],
  ["COc1ccc(Nc2ncccc2-c2nc3n(n2)S(=O)(=O)c2ccccc2N3c2ccccc2)cc1", 0]
]}

Turning now to a further record.
For "CN1c2ccccc2S(=O)(=O)n2nc(-c3cccnc3Nc3ccc(Cl)cc3)nc21" , write its inhibition of growth at 10 µM.
3

----------
# Test system: CV-1
# Method Summary: Growth inhibition of african green monkey CV1 cells after 48 hrs by MTT assay
# Type: cell-based
# Condition Parameters: Chlorocebus aethiops, CV-1, 48 h
Measured Endpoint: IC50

{"columns": ["Compound Smiles", "Measured Endpoint", "Recorded Result"],
 "data": [
  ["COc1ccc(Nc2ncccc2C(=O)Nc2nc3ccc([N+](=O)[O-])cc3s2)cc1", "IC50", "10 µM"],
  ["CN1c2ccccc2S(=O)(=O)n2nc(-c3cccnc3Nc3ccc(Cl)cc3Cl)nc21", "IC50", "> 100 µM"],
  ["O=C(Nc1nc2ccc([N+](=O)[O-])cc2s1)c1cccnc1Nc1ccccc1", "IC50", "70 µM"],
  ["O=C(Nc1nc2ccc([N+](=O)[O-])cc2s1)c1cccnc1Nc1ccc(F)cc1", "IC50", "15 µM"],
  ["O=C(Nc1nc2ccc([N+](=O)[O-])cc2s1)c1cccnc1Nc1ccc(Cl)cc1", "IC50", "0.8 µM"]
]}

Turning now to a further record.
For "O=C(Nc1nc2ccc([N+](=O)[O-])cc2s1)c1cccnc1Nc1cc(F)c(F)c(F)c1" , write its IC50.
> 100 µM
